This collection of values is drawn from PubChem BioAssay AID588627.

Measured Target: Mas-related G-protein coupled receptor member X1 (Homo sapiens)
Assay Overview: MrgX1 activation via calcium signaling – HEK293 cells, Fluo-4 calcium flux, primary screen (AID 588627);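 on B-score: B-score of the peak-minus-trough calcium fluorescence change over baseline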
Test Context: Fluo-4 calcium fluorescence, agonist mode, at 10 µM; hits give high values
The campaign covered roughly 310,000 compounds. About 1,400 (0.45%) were called active. This excerpt belongs to a sample that is enriched for actives.
Quantity Name: B-score

Examples with answers:
                                   molecule                           measured_target  recorded_measurement
0        Cc1cc(OCCOc2cccc3cccnc23)c(C)cc1Cl  Mas-related G-protein coupled receptor member X1 (Homo sapiens)              inactive
1  COc1ccc(C2c3ccc(O)cc3Oc3ncn(CCCO)c(=N)c32)cc1OC (stereo unspecified)  Mas-related G-protein coupled receptor member X1 (Homo sapiens)              inactive
2  C=CCN1CN(S(=O)(=O)c2ccc(OC)cc2)c2nc3ccccc3nc21  Mas-related G-protein coupled receptor member X1 (Homo sapiens)              inactive
3      O=C(NC1CCCCC1)c1ccc(-c2ccc(Cl)cc2)o1  Mas-related G-protein coupled receptor member X1 (Homo sapiens)              inactive

The record that follows has no B-score shown yet.
Query: Provide only the value of recorded B-score for Cc1ccc(NC(=O)c2ccn(C(=O)Nc3ccccc3)n2)c(C)c1
Reply: inactive

---

Measured Target: Mas-related G-protein coupled receptor member X1 (Homo sapiens) (UniProt Q96LB2)
Sequence (Q96LB2 whole entry, looked up): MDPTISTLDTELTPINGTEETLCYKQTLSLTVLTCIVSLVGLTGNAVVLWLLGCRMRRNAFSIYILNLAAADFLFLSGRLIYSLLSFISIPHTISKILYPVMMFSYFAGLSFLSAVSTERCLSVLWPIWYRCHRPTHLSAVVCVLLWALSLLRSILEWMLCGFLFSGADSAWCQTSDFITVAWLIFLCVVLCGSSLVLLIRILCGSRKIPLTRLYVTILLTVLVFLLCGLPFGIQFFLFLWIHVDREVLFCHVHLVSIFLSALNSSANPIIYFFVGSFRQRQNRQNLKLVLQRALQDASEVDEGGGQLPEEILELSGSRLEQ
Assay Overview: MrgX1 activation via calcium signaling – HEK293 cells, Fluo-4 calcium flux, primary screen (AID 588627)
Test Context: Fluo-4 calcium fluorescence, agonist mode, at 10 µM
The whole screen tested about 310,000 compounds, of which about 1,400 (0.45%) were called active.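 Rule for the calls: active = calcium response B-score plate-corrected fluorescence ratio at least 3 library SD, with starting fluorescence B-score inside 5 SD; inactive = the rest.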 This is one part of a sample in which actives are shown more often than they occur.
In this exercise, the only acceptable responses are active, inactive

Query: // return assay outcome for Cc1c(C)c2c(OCC(=O)NCCCO)cc3c(c2oc1=O)CCC(C)(C)O3
Reply: inactive

Query: // return assay outcome for Cc1nn(CCCC(=O)NCc2ccccc2Cl)c(=O)c2nccn12
Reply: inactive

Query: // return assay outcome for FC(F)(F)C1CCCN(c2nsc3ccccc23)C1 (stereo unspecified)
Reply: active

Query: // return assay outcome for O=C(CN1C(=O)C2C3C=CC(C3)C2C1=O)NCC1COc2ccccc2O1 (stereo unspecified)
Reply: inactive

Query: // return assay outcome for COc1ccc(OC)c(C(=O)c2ccc(C(=O)O)cc2)c1
Reply: inactive

Query: // return assay outcome for Cc1cc(C(=O)CCl)c(C)n1CC1COc2ccccc2O1 (stereo unspecified)
Reply: inactive

Query: // return assay outcome for O=C1C(=O)N(CC2COc3ccccc3O2)c2ccccc21 (stereo unspecified)
Reply: active

Query: // return assay outcome for CN(C)Cc1ccc(F)cc1Sc1cc(Cl)ccc1Cl
Reply: inactive

Query: // return assay outcome for Cc1cc(=O)oc2c3c(cc(OCC(=O)N[C@H](C(=O)O)c4ccccc4)c12)OC(C)(C)CC3
Reply: inactive

Query: // return assay outcome for O=C(NC(Cc1ccccc1)C(=O)N1CCCC(C(F)(F)F)C1)c1ccccc1 (stereo unspecified)
Reply: inactive

Query: // return assay outcome for O=C(NCC(=O)N1CCCC(C(F)(F)F)C1)c1ccccc1F (stereo unspecified)
Reply: inactive

---

Measured Target: Mas-related G-protein coupled receptor member X1 (Homo sapiens) (UniProt Q96LB2)
Assay Overview: MrgX1 activation via calcium signaling – HEK293 cells, Fluo-4 calcium flux, primary screen (AID 588627)
Test Context: Fluo-4 calcium fluorescence, agonist mode, at 10 µM
Among all 310,000 compounds or so, about 1,400 (0.45%) were called active.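 The calls were made as follows: active = calcium response B-score plate-corrected fluorescence ratio at least 3 library SD, with starting fluorescence B-score inside 5 SD; inactive = the rest.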 The full list was thinned out, with actives kept by preference.
In this exercise, the only acceptable responses are 1 (yes) (active), 0 (no) (inactive)

Query: // return assay outcome for O=C(COC(=O)CNS(=O)(=O)c1ccccc1)NC12CC3CC(CC(C3)C1)C2
Reply: 0 (no)

Query: // return assay outcome for COC(=O)C1=C(C(=O)OC)C(c2cc([N+](=O)[O-])ccc2O)c2sc(=O)[nH]c2S1 (stereo not given)
Reply: 0 (no)

Query: // return assay outcome for Cc1ccc(S(=O)(=O)NC2CCCCCC2)cc1C(N)=O
Reply: 0 (no)

Query: // return assay outcome for O=C(NCc1cccnc1)c1cnc2ccccc2n1
Reply: 0 (no)

Query: // return assay outcome for CCC1(c2ccccc2)NC(=O)N(CC(=O)c2ccc3c(c2)OCO3)C1=O (stereo not given)
Reply: 0 (no)

Query: // return assay outcome for CCN(CC)C(=O)C1CCC(C)(C(=O)O)C1(C)C (stereo not given)
Reply: 0 (no)

Query: // return assay outcome for COc1ccc(-c2cc(C(=O)NC(Cc3c[nH]c4ccccc34)C(=O)O)c(C)o2)cc1OC (stereo not given)
Reply: 0 (no)

Query: // return assay outcome for COc1ccnc(Oc2ccccc2)n1
Reply: 0 (no)

Query: // return assay outcome for CCNC(=O)CCc1nc(-c2ccc(C(C)(C)C)cc2)no1
Reply: 0 (no)

Query: // return assay outcome for CC1CN(C(=O)COC(=O)c2cccc(NS(=O)(=O)c3ccccc3)c2)CC(C)O1 (stereo not given)
Reply: 0 (no)

Query: // return assay outcome for CS(=O)(=O)N(CC(=O)N1CCc2ccccc2C1)c1ccc(Br)cc1
Reply: 0 (no)

Query: // return assay outcome for CC(=O)Nc1nc2c(s1)C(=O)NCC(C)(C)C2
Reply: 0 (no)

Query: // return assay outcome for O=C(CCN1CCc2ccccc2C(O)(c2ccccc2)C1)c1ccc2c(c1)OCCO2 (stereo not given)
Reply: 1 (yes)

Query: // return assay outcome for CCN(Cc1nc2ccccc2c(=O)[nH]1)Cc1cc(=O)oc2cc(C)c(C)cc12
Reply: 1 (yes)

Query: // return assay outcome for COc1ccc(Cl)cc1C(=O)NNC(=S)NC1CCCC1
Reply: 0 (no)

Query: // return assay outcome for CC(C)(C)NC(=O)CN(C(=O)c1csnn1)c1ccccc1-c1ccccc1
Reply: 0 (no)

Query: // return assay outcome for CN1CCN(/N=C/c2ccc(C#N)cc2)CC1
Reply: 0 (no)

Query: // return assay outcome for O=C1Cc2ccccc2Sc2ccc(Cl)cc21
Reply: 1 (yes)

Query: // return assay outcome for Cn1c(N)cc(-c2ccc(F)cc2)c(C#N)c1=O
Reply: 0 (no)

Query: // return assay outcome for COc1ccc(CCNc2ncnc3c2nnn3Cc2ccccc2)cc1
Reply: 0 (no)

Query: // return assay outcome for CN(Cc1nc2ccccc2c(=O)[nH]1)Cc1cc(=O)oc2ccc3ccccc3c12
Reply: 0 (no)

Query: // return assay outcome for O=C(Nc1ccc(Cl)cc1)C1c2cccc[n+]2CC(=O)N1Cc1ccc2c(c1)OCO2 (stereo not given)
Reply: 0 (no)

Query: // return assay outcome for Cn1c(Cn2nnc3ccccc32)nnc1SCC(=O)c1ccccc1F
Reply: 0 (no)

Query: // return assay outcome for CN(C)C(=O)N=NC(=O)N(C)C
Reply: 0 (no)

Query: // return assay outcome for CCCc1nc(N2CCN(C)CC2)c2sc(=S)n(-c3ccccc3)c2n1
Reply: 0 (no)

Query: // return assay outcome for Cc1ncoc1C(=O)N1CCCC(C(=O)c2ccc3c4c(cccc24)CC3)C1 (stereo not given)
Reply: 0 (no)

Query: // return assay outcome for CC(C)N(c1ccccc1)c1ncnc(NCCC(=O)O)c1[N+](=O)[O-]
Reply: 0 (no)

Query: // return assay outcome for O=C1CC2(CCCC2)Oc2ccc(Cl)cc21
Reply: 0 (no)

Query: // return assay outcome for O=C(Nc1ccccc1N1CCOCC1)c1ccc(OCc2cscn2)cc1
Reply: 0 (no)

Query: // return assay outcome for COc1cc(/C=C2/SC(=S)N(Cc3ccccc3)C2=O)cc(OC)c1O
Reply: 0 (no)

Query: // return assay outcome for O=C(CN1CCC(O)(c2ccccc2)CC1)Nc1ccc2c(c1)OCCO2
Reply: 0 (no)

Query: // return assay outcome for O=C(NCCC1CCCCN1S(=O)(=O)c1ccc(F)cc1)C(=O)NC1CC1 (stereo not given)
Reply: 0 (no)

Query: // return assay outcome for C=CCO/N=C/C1=C(O)C(C(=O)OC)C(C)(C)CC1=O (stereo not given)
Reply: 0 (no)

Query: // return assay outcome for C/C(=N\Nc1cccc(C(=O)O)c1)c1ccc2c(c1)Nc1ccccc1S2
Reply: 0 (no)

Query: // return assay outcome for O=C(CCN1CCN(C/C=C/c2ccccc2)CC1)Nc1ccccc1Cl
Reply: 0 (no)

Query: // return assay outcome for CC(C)OC(=O)CN1C(=O)C(=O)c2ccccc21
Reply: 0 (no)

Query: // return assay outcome for CN1CCN(/N=C/c2ccc(-c3ccc([N+](=O)[O-])cc3)o2)CC1
Reply: 1 (yes)

Query: // return assay outcome for Cc1ccc(-c2ccc(/C=N/NC(=O)CN3CCOCC3)o2)cc1[N+](=O)[O-]
Reply: 0 (no)

Query: // return assay outcome for Fc1ccc2[nH]c3c(N4CCSCC4)ncnc3c2c1
Reply: 1 (yes)

Query: // return assay outcome for CS(=O)(=O)N(CC(=O)N1CCCC1)Cc1ccccc1
Reply: 0 (no)

Query: // return assay outcome for CCOc1ccc(C(c2c(C)[nH][nH]c2=O)c2c(C)[nH][nH]c2=O)cc1OCC
Reply: 0 (no)

Query: // return assay outcome for O=C1C(=O)N(c2ccccc2)c2ccccc21
Reply: 1 (yes)

Query: // return assay outcome for Cc1ccc2c(c1)C1CN(C)CCC1N2S(=O)(=O)c1ccc(Oc2ccc([N+](=O)[O-])cc2)cc1 (stereo not given)
Reply: 0 (no)

Query: // return assay outcome for Cc1c2cnn(CC(=O)NCCCN3CC(C)CC(C)C3)c(=O)c2c(C)n1Cc1ccc(Cl)cc1 (stereo not given)
Reply: 0 (no)

Query: // return assay outcome for CCn1c(CC(=O)Nc2ccccc2)nnc1SCC(=O)N1CCOCC1
Reply: 0 (no)
